# growth listing for each entry below
# System: SK-MEL-5 melanoma
# MEASUREMENT_PROTOCOL: NCI-60 one-dose screen, 48 h (100 = growth as untreated, 0 = no growth, -100 = all killed)
# ASSAY_CONTEXT: 10 µM unless noted
# Experimental: Growth inhibition of the SK-MEL-5 human tumor cell line is measured as a screen for anti-cancer activity. Cells are grown in 96 well plates and exposed to the test compound for 48 hours. Compounds are tested at a single concentration, which is 10^-5 M for most compounds. The reported endpoint is percent growth (GI% or GIPRCNT), where numbers from 0 - 100% represent growth inhibition, and numbers from -100% - 0 represent cell death. For example, a value of 40 represents 60% growth inhibition. […]
About 83,000 compounds went through this panel and 20% of them were active in at least one assay; those are over-represented in the sample as a whole.
The reply should contain only the number, in %.

Below, 5 compounds whose answers are already recorded.
Exercise: Would you mind telling me what growth value was observed for "CN(C)C/C=C/C(=O)Nc1cc2c(Nc3ccc(F)c(Cl)c3)ncnc2cc1O[C@H]1CCOC1" ?
Key: -81.4

Exercise: Given the compound "COCCN1CCN(Cc2ccc(-c3n[nH]c4c3C(=O)c3c(NC(=O)NN5CCOCC5)cccc3-4)cc2)CC1" , what is its reported growth?
Key: -23.8

Exercise: Give its growth value. Item: CCN(CC)CCCC(C)Nc1cc(-c2ccc(C(F)(F)F)cc2)c(C#N)c2nc3ccccc3n12 (centres undefined)
Key: -89.9

Exercise: Requested read-out: growth. Entry: "Cc1ccc(F)c(NC(=O)Nc2ccc(-c3cccc4[nH]nc(N)c34)cc2)c1"
Key: 34.6

Exercise: Given COC(=O)[C@H](Cc1ccccc1)NC(=O)[C@@H](OC)[C@@H]1Cc2cc3cc(OC4CC(OC5CC(O)C(O)C(C)O5)C(O)C(C)O4)c(C)c(O)c3c(O)c2C(=O)[C@H]1OC1CC(OC2CC(OC3CC(C)(O)C(O)C(C)O3)C(O)C(C)O2)C(O)C(C)O1 (some centres undefined) , state its recorded growth.
Key: -78

Continuing:
Exercise: Which growth is reported for this compound? O=C1C=CC2(NN=C(c3ccccc3)N2c2ccc(Cl)cc2)c2cccc(O)c21 (centres undefined)
Key: -70.2

Exercise: Requested field: growth. Item: "CC(C)CC(=O)Nc1n[nH]c2c1CN(C(=O)C1CCN(C)CC1)C2(C)C"
Key: -35.7

Exercise: // growth lookup, key: "CN1CC[C@H](c2c(O)cc(O)c3c(=O)cc(-c4ccccc4Cl)oc23)[C@H](O)C1"
Key: -19

Exercise: Tell me the measured growth of "COc1ccc(OC)c(NC2=C(SCCc3ccccc3)C(=O)c3ccccc3C2=O)c1" , please.
Key: 80.9

----------
# reported growth; entries follow
# System: K-562 leukemia
# MEASUREMENT_PROTOCOL: NCI-60 one-dose screen, 48 h (100 = growth as untreated, 0 = no growth, -100 = all killed)
# ASSAY_CONTEXT: 10 µM unless noted
Compounds without any hit were thinned out: in the full panel of roughly 83,000, 20% have a hit.
The response must be a number in % with no trailing unit.

Here is how some molecules turned out for growth.
Exercise: Using the record for "CN1CCN(c2ccc(C(=O)Nc3n[nH]c4ccc(Cc5cc(F)cc(F)c5)cc34)c(NC3CCOCC3)c2)CC1" , report its growth.
Key: -47.8

Exercise: Quick one: growth for "O=C(NCCO)Nc1ccc(-c2nc(N3CCOCC3)c3cccn3n2)cc1" ?
Key: 34.4

Exercise: Tell me the measured growth of "C=CCC(=O)N[C@H](/C=C/C(=O)O)Cc1ccc(-c2cc(Cl)cc(Cl)c2)cc1" , please.
Key: 96.7

Further cases:
Exercise: Give the measured growth of "N#Cc1c(C(F)(F)F)cc(Nc2ccc3nc(NCCN4CCCC4)oc3c2)n2c1nc1ccccc12" .
Key: 11.8

Exercise: Looking for the measured growth of "C/C(=C(/c1ccc(Cl)cc1)c1ccc(OCCN2CCCCCC2)cc1)c1ccccc1" , can you help?
Key: 22.7

Exercise: Given the molecule "NC1=Nc2ccccc2N(O)N1" , what is its reported growth?
Key: 96.7

Exercise: For "Cc1cn(-c2cc(NC(=O)c3ccc(C)c(Nc4nccc(-c5cccnc5)n4)c3)cc(C(F)(F)F)c2)cn1" , what is its reported growth?
Key: -11.1

Exercise: # lookup: growth of "CCCCCC(=O)OCc1ccc(Cl)c(Cl)c1"
Key: 98.8
